- TGT: Streptavidin (Streptomyces avidinii) (UniProt P22629)
- Sequence (P22629 whole entry, looked up): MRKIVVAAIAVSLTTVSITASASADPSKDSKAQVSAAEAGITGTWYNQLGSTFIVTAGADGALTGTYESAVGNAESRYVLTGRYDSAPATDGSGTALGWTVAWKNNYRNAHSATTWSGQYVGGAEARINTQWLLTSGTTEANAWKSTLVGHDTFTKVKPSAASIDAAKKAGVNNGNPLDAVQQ
- ASSAY: compounds binding control protein streptavidin – biophysical, small-molecule microarray, 635/667 nm fluorescence, artefact control for SMM compound annotation, primary screen (AID 1147);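 note: signal reflects streptavidin binding to arrayed compounds as a control protein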
- TEST CONTEXT: higher = more signal

>  <STRUCTURE STRING>
COCCOC(=O)N1C(=O)[C@@]2(c3cc(C#Cc4ccc(OC)cc4)ccc31)[C@H](c1ccc(O)cc1)N1[C@H](c3ccccc3)[C@H](c3ccccc3)OC(=O)[C@H]1[C@@H]2C(=O)Nc1nc2ccccc2s1

>  <TGT>
Streptavidin (Streptomyces avidinii) (UniProt P22629)

>  <composite z-score>
0.302

$$$$
>  <STRUCTURE STRING>
O=C1O[C@@H](c2ccccc2)[C@@H](c2ccccc2)N2[C@@H](c3ccc(OCCO)cc3)[C@]3(C(=O)Nc4ccc(C#CCCO)cc43)[C@@H](C(=O)NC[C@H](O)c3ccccc3)[C@H]12

>  <TGT>
Streptavidin (Streptomyces avidinii) (UniProt P22629)

>  <composite z-score>
0.477

$$$$
>  <STRUCTURE STRING>
CCOC(=O)[C@H]1C/C=C/C[C@H](C(=O)OCC)C(=O)O[C@H]2[C@@H](OC)O[C@H](CO)[C@@H](OC(=O)c3ccc(Br)cc3)[C@@H]2OC1=O

>  <TGT>
Streptavidin (Streptomyces avidinii) (UniProt P22629)

>  <composite z-score>
-0.0923

$$$$
